B1: tRNA (parent)
chain: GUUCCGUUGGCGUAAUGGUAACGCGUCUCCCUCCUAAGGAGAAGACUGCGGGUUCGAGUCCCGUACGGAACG

- Variants of: B1
- Assay Notes: yeast fitness relative to wild type (ratio to wild type); higher = fitter; tRNA-Arg(CCU), competitive growth, 37 C, YPD
Variants at the floor of the assay were thinned out.
yeast fitness reference

                     macromolecule_sequence        readout  measured_result
0  GUUCCGUUGGCGUAAGGGUAACGCGUCUCCCUCUUAAGGGGAGGACUGCGGGUUCGAGUCCAGUACGGCACG [U16G C34U A40G A43G C62A A69C]  yeast fitness            ≤ 0.5
1  GUUCCGAUCGCGUAGUGGUAACACGUCUCCCUCCUAAGGAGAAGACUGCGGGAUCGAGUCCCGUACGGAACG [U7A G9C A15G G23A U53A]  yeast fitness            0.505
2  GAUCCGUUGGCGUACUGGUAACGCGUCUCCCUCCUAAGGAGAAGACUGCGGGUUCGACUCCCGUACGGUACG [U2A A15C G58C A69U]  yeast fitness            ≤ 0.5
3  GUUCUGUUGGCGUAAUGGCAACGCGUCUUCCUCCUAAGGAGCAGACUGCGGGUUCGGGUCCCGUACGGAACG [C5U U19C C29U A42C A57G]  yeast fitness            ≤ 0.5
4  GUUCUGUUGGCGUAAUGGUAACGUGUCUCCCUCCUAAGGAGAAGACUGCGGGUUCGAGUCCCGUACGGCACG [C5U C24U A69C]  yeast fitness            0.777
5  GUUCCGUUCGCGUAAUGGUAACGCGUCUCCCUCCUAAGGAGAAGACUGUGGGUUCGAGUCCCGUUCGGAACG [G9C C49U A65U]  yeast fitness             0.52
6  GUUCCGUUGGCGUAAUGGUAACGCGUCUCCCUCCUAGGGAGAAGACUGCGGGUUCGAGUCCAGUACGGAACG [A37G C62A]  yeast fitness            0.582
7  GUUCCGUUGGCGUAAUGGUAACGCGUCACCCUCCUAAGGAGAAGACUGCGGGUUGGAGUCCCGUACGGAACG [U28A C55G]  yeast fitness            0.537

Note to self: yeast fitness recorded for GUUCCGUUCCCGUAAUGGUAACGCGUCUCCCUCCUCAGCAGAAGACUACGGGUUCGAGUCCCGUACGGAACG [G9C G10C A36C G39C G48A] was 0.512

Note to self: yeast fitness recorded for GUUCCGUUGGCGUAAUGGUAACGCGUCUCCCUCCUGAGGAGAAGACUGCGGGUUCGAGUCCCGCAUGGAACG [A36G U64C C66U] was 0.768

Note to self: yeast fitness recorded for GUUCCGUUGGCGUAAUGGUAACGCGUCUCCCUCCUUUGGAGAAGACUGCGGGUUCGAGUCCCGUACGGAACG [A36U A37U] was 0.587
